# Tested on: NCI-H23 lung
# assay.procedure: NCI-60 one-dose screen, 48 h
# condition.description: 10 µM unless noted
This is part of a sample that, as a whole, favours compounds with a hit. Of some 83,000 tested, about 20% had one in any assay. Calls of active or inactive are those of the source. How the source made its calls: active means growth percent below 10; inactive means the rest.
Classes used: YES for active, NO for inactive

>  <compound>
Nc1cnc(C(=O)NNc2nc3cc(F)ccc3n3cccc23)cn1

>  <category.label>
NO

$$$$
>  <compound>
C=C(C)[C@@H]1CC[C@]2(CO)CC[C@]3(C)[C@H](CC[C@@H]4[C@@]5(C)CC[C@H](NCO)C(C)(C)[C@@H]5CC[C@]43C)[C@@H]12

>  <category.label>
YES

$$$$
>  <compound>
C=C1C(=O)O[C@H]2[C@H]1CC/C(COC(=O)c1cc3ccccc3s1)=C\CC[C@@]1(C)O[C@@H]21

>  <category.label>
YES

$$$$
>  <compound>
O=C1c2ccc3c4c5ccc(c24)C(=O)N1CCCOCCCCOCCCNCc1ccc(cc1)CNCCCOCCCCOCCCN(C3=O)C5=O

>  <category.label>
YES

$$$$
>  <compound>
O=c1c2cccc3c(N4CCCC4)ccc(c32)c2nc3ccccc3n12

>  <category.label>
NO

$$$$
>  <compound>
O=C1/C(=C/c2ccccc2O)CC/C1=C\c1ccccc1O

>  <category.label>
NO

$$$$
>  <compound>
CS(=O)(=O)Nc1cc(-c2ccc3ncnc(Nc4ccc5c(cnn5Cc5cccc(F)c5)c4)c3c2)cnc1Cl

>  <category.label>
NO

$$$$
>  <compound>
CC(C)COc1nc2c(c(=O)n(C)c(=O)n2C)n1C

>  <category.label>
NO

$$$$
>  <compound>
COc1ccc(C2=C(Br)C(=O)c3nc(C)ccc3C2=O)cc1

>  <category.label>
NO

$$$$
>  <compound>
COc1ccc2c(c1)CC[C@H](O)/C2=C/c1cc(OC)c(OC)c(OC)c1

>  <category.label>
NO

$$$$
>  <compound>
Cc1ccccc1/C=C/C(=O)c1cccc(OCCCCOc2cccc(C(=O)/C=C/c3ccccc3C)c2)c1

>  <category.label>
NO

$$$$
>  <compound>
COc1cc2c(cc1OCCCN1CCN(CCCOc3cc4c(cc3OC)C(=O)N3CCC[C@H]3C=N4)CC1)C=CC(C)(C)O2

>  <category.label>
YES

$$$$
>  <compound>
c1cnc2c(-c3nc4ccc5[nH]ncc5c4c4c3CCCC4)c[nH]c2c1

>  <category.label>
NO

$$$$
>  <compound>
COc1ccc2c(c1)N(CCO)C1=C(C(=O)OC1)C2c1cccc(F)c1 (stereo not drawn)

>  <category.label>
NO

$$$$
>  <compound>
Nc1[nH]n2cc(-c3ccccc3)nc2c1N=Nc1ccc(S(N)(=O)=O)cc1

>  <category.label>
NO

$$$$
>  <compound>
Clc1ccc2c(c1)C(c1c[nH]c3ccccc13)(c1c[nH]c3ccccc13)CCO2

>  <category.label>
NO

$$$$
>  <compound>
c1cc2c(ccc3[nH]c(-c4ccc5[nH]ncc5c4)c4c(c32)CCCC4)n1

>  <category.label>
NO

$$$$
>  <compound>
CCCn1cc2c(=O)nc3sc(Cc4ccccc4)c(C)n3c2n1

>  <category.label>
NO

$$$$
>  <compound>
COC(=O)CC[C@H](C)[C@H]1CC[C@H]2[C@@H]3CC[C@@H]4CC5(CC[C@]4(C)[C@H]3CC(=O)[C@]12C)Nc1ccccc1NC5=NC(C)(C)C (stereo partly drawn)

>  <category.label>
NO

$$$$
>  <compound>
COc1ccc(/C=C/C(=O)c2cccc(OCCCCOc3cccc(C(=O)/C=C/c4ccc(OC)c(OC)c4)c3)c2)cc1OC

>  <category.label>
NO

$$$$
>  <compound>
COC(=O)C1Cc2ccccc2CN1C(=O)c1ccc2c(c1)Cc1ccccc1-2 (stereo not drawn)

>  <category.label>
NO

$$$$
>  <compound>
COCCNC(=O)Nc1ccc2nc(-c3cccs3)c(-c3cccs3)nc2c1

>  <category.label>
NO

$$$$
>  <compound>
CC(=O)N1N=C(c2ccc(Nc3nc(Nc4ccccc4)nc(Nc4ccccc4)n3)cc2)CC1c1cccc([N+](=O)[O-])c1 (stereo not drawn)

>  <category.label>
NO

$$$$
>  <compound>
O=C(CN1C(=O)S/C(=C\C(Cl)=C\c2ccccc2)C1=O)NCCc1ccc(O)cc1

>  <category.label>
NO

$$$$
>  <compound>
Nc1c(C(=O)Nc2ccccc2F)sc2nc3c(cc12)CCCC3

>  <category.label>
NO

$$$$
>  <compound>
Cc1cc(C)c2c(c1)N(C)c1ncnc(-n3cnc4cc(C)ccc43)c1CC2C (stereo not drawn)

>  <category.label>
NO

$$$$
>  <compound>
O=[N+]([O-])c1ccc(O)cc1Br

>  <category.label>
NO

$$$$
>  <compound>
CS(=O)(=O)Nc1cc(-c2ccc3ncnc(Nc4ccc5c(cnn5Cc5ccc(F)cc5)c4)c3c2)cnc1Cl

>  <category.label>
NO

$$$$
>  <compound>
C=CC(=O)N1CCN(c2cccc(Oc3nccc(Nc4nnc(-c5ccc(Br)cc5)s4)n3)c2)CC1

>  <category.label>
NO

$$$$
>  <compound>
CCCCNC(=O)Oc1ccc(/C(=C(/C)Cc2ccc(OC)cc2)c2ccc(OCCN3CCCC3)cc2)cc1

>  <category.label>
NO

$$$$
>  <compound>
CCOc1ccccc1Cn1ccnc1CCc1c(Cl)c(O)cc(O)c1C(=O)OC

>  <category.label>
NO

$$$$
>  <compound>
COC1=CC(c2ccc[nH]2)=N/C1=C\c1[nH]c(C)c(C)c1CCC(=O)OCc1ccccc1

>  <category.label>
YES

$$$$
>  <compound>
CCCOC(=O)Nc1nc2ccc(SCC(C)C)cc2s1

>  <category.label>
NO

$$$$

These measurements were taken from PubChem BioAssay (NCI).
